- Tested on: HEK-293T
- Assay Text: Multiplex assay against HEK293T
- Format: toxicity, cell-based
- Condition Context: human, 12 h, 1 µM, compound concentration 1 uM, replicate 1
Non-standard residues stand in square brackets, D forms with d. Residues, ends and D or L forms follow the SMILES beside them.
Measured Parameter: Population Fragmented Nuclei (%)
Answers without a unit are incomplete; give the number and then its unit.

Population Fragmented Nuclei (%) of CCCCC[C@H](O)/C=C/[C@H]1[C@H](O)CC(=O)[C@@H]1CCCCCCC(=O)O [ALPROSTADIL] , assay on HEK-293T, is 7%

Observed Population Fragmented Nuclei (%), HEK-293T, COc1c(Nc2ccc(S(C)(=O)=O)nc2C)ncnc1OC1CCN(C(=O)OC(C)C)CC1 [ADP-597] : 5%

Field Population Fragmented Nuclei (%) (system: HEK-293T) for entry Cc1cc(O)c(-c2ccc([C@@H](C)CN(C)C)cc2)c2c1[nH]c(=O)c1sccc12 = 14%

HEK-293T assay, compound C[C@@H]1CC(=O)Nc2cccc(-c3ccc4c(c3)c(-c3cnn(C)c3)nn4C)c2N1 , recorded Population Fragmented Nuclei (%) = 7%

// compound CN(C)C(=O)Cn1cc(-c2ccc(-c3nnc4ccccn34)cc2)cn1 , assay HEK-293T, Population Fragmented Nuclei (%) value: 7%

For the compound COc1cc2nc(N3CCN(C(=O)COc4c(OC)cccc4C(C)C)CC3)nc(N)c2cc1OC.Cl.Cl , the measured Population Fragmented Nuclei (%) on HEK-293T was 12%

Here O=C(Nc1cc(-c2ccccc2)nn1-c1ccccc1F)c1ccc([N+](=O)[O-])cc1 was tested on HEK-293T, and its Population Fragmented Nuclei (%) came to 7%

Readout Population Fragmented Nuclei (%) for Cc1cc(-c2ccc3c(c2)CC[C@H]3N2CC3(CCN(C(=O)Cc4cn5cc(C)sc5n4)CC3)C2)ncn1 [PF-5190457] , test system HEK-293T, was 5%

Readout Population Fragmented Nuclei (%) for CC(C)C[C@@H]1NC(=O)[C@@H](C(C)C)NC(=O)[C@@H]2CCCN2C(=O)[C@@H](CC(=O)O)NC(=O)[C@@H](Cc2c[nH]c3ccccc23)NC1=O [BQ-123] (cyclo(L[dW][dD]P[dV])) , test system HEK-293T, was 7%
